Test system: Staphylococcus aureus
ASSAY_SUMMARY: Antimicrobial activity against methicillin-resistant Staphylococcus aureus 75 after 18 hrs by broth microdilution method
Assay type: functional
Residues, ends and D or L forms follow the SMILES beside them. *: point of attachment. Stearoyl = CCCCCCCCCCCCCCCCCC(=O)*; Myristoyl = CCCCCCCCCCCCCC(=O)*; Lauroyl = CCCCCCCCCCCC(=O)*; Octanoyl = CCCCCCCC(=O)*
ENDPOINT_LABEL: MIC (µM)
Answers are plain numbers, in µM.

# count of solved cases: 3
COMPOUND: CCCCCCCCCCCC(=O)N[C@@H](CCCNC(=N)N)C(=O)N[C@@H](Cc1c[nH]c2ccccc12)C(=O)N[C@@H](CCCNC(=N)N)C(N)=O (Lauroyl-Arg-Trp-Arg-NH2)
VALUE_OBSERVED: 4

COMPOUND: CCCCCCCC(=O)N[C@@H](Cc1c[nH]c2ccccc12)C(=O)N[C@@H](CCCNC(=N)N)C(=O)N[C@@H](CCCNC(=N)N)C(N)=O (Octanoyl-Trp-Arg-Arg-NH2)
VALUE_OBSERVED: 64

COMPOUND: CCCCCCCCCCCCCCCCCC(=O)N[C@@H](CCCNC(=N)N)C(=O)N[C@@H](Cc1c[nH]c2ccccc12)C(=O)N[C@@H](CCCNC(=N)N)C(N)=O (Stearoyl-Arg-Trp-Arg-NH2)
VALUE_OBSERVED: 8

# evaluate next
Input line: If you can, please state the reported MIC value of CCCCCCCCCCCCCC(=O)N[C@@H](Cc1c[nH]c2ccccc12)C(=O)N[C@@H](CCCNC(=N)N)C(=O)N[C@@H](CCCNC(=N)N)C(N)=O (Myristoyl-Trp-Arg-Arg-NH2) .
Output line: 2
